Data credit: ChEMBL document CHEMBL1821620

Target: Steryl-sulfatase (Homo sapiens)
Test: Inhibition of STS expressed in HEK293 cells assessed as transformation of [3H]-E1S to [3H]-E1 at 0.1 uM after 2 hrs by scintillation counting
Type: cell-based
Activity calls are given as the source filed them. The rule behind the calls is not given here.

[
  {
    "molecule": "C[C@]12CC[C@@H]3c4ccc(O)cc4CC[C@H]3[C@@H]1CC[C@@]2(O)CC1CCCCC1",
    "inhibition": "Active"
  },
  {
    "molecule": "C[C@]12CC[C@@H]3c4ccc(O)cc4CC[C@H]3[C@@H]1CC[C@@]2(O)Cc1ccco1",
    "inhibition": "Active"
  },
  {
    "molecule": "C[C@]12CC[C@@H]3c4ccc(O)cc4CC[C@H]3[C@@H]1CC[C@@]2(O)CC1CC1CCBr (stereo partly drawn)",
    "inhibition": "Active"
  }
]
